Recorded values, source PubChem BioAssay (NCATS).

- Assay target: Rap guanine nucleotide exchange factor 3 (Homo sapiens)
- Method notes: Counterscreen qHTS for agonist of cAMP-regulated guanine nucleotide exchange factor 3 (EPAC1) (AID 1645889); note: % of control where 0% means no effect; nearly all actives have a fitted effect of over 40% in size
- Run conditions: EPAC1 Rap1B-BODIPY-GDP exchange, fluorescence; series mostly up to 154 µM
Results filed as inconclusive are left out. The source made the active and inactive calls. Calls come from the whole dose curve; as a rule, active = well fitted activation curve with a large enough effect; inconclusive = small, poorly fitted or top-dose-only effect, or another doubt; inactive = no such curve, though single readings can be large or run the other way.
Readout label: activation

Answered cases to consult:
CC1(Cc2ccccc2Cl)C(=O)Nc2ccc(OC(F)(F)F)cc21 (configuration not stated): 5.61% [at 30.8 µM] (inactive)
COc1ccc(/C=C2\Sc3ccc(C(=O)N4CCN(Cc5ccccc5)CC4)cc3N(C)C2=O)cc1OC: inactive
CCO[C@H]1OC(C(=O)NCc2ccccc2)=C[C@@H](c2ccc(C(F)(F)F)cc2)[C@@H]1CCCO: inactive
C=CCNC(=O)c1oc2ccc(S(=O)(=O)N(CC)CC)cc2c1C: inactive
C=CC[C@@H](Cc1ccc(F)cc1)C(=O)OC[C@@H]1CCCN1C(=O)[C@@H](CC=C)CC(=O)N(CCO)Cc1ccccc1: inactive
CC(=O)Nc1ccc(NC(=S)NC(=O)/C=C/c2ccco2)cc1: inactive

Under Rap guanine nucleotide exchange factor 3 (Homo sapiens): activation value of `Cc1ccc(C)c(-n2c(CCC(=O)O)ccc2-c2ccc(Cl)cc2)c1` ?
inactive

Under Rap guanine nucleotide exchange factor 3 (Homo sapiens): activation value of `Cc1ccccc1CN(C)CC(=O)Nc1c(C)cccc1C(C)C` ?
-4.69% [at 30.8 µM] (inactive)

Under Rap guanine nucleotide exchange factor 3 (Homo sapiens): activation value of CC1(Cc2cc(Cl)ccc2C(F)(F)F)C(=O)Nc2cc(F)ccc21 (configuration not stated) ?
12.6% [at 30.8 µM] (inactive)

Under Rap guanine nucleotide exchange factor 3 (Homo sapiens): activation value of `CC(C)(C)Cc1c(-c2ccco2)nc2ccc(Cl)cn12` ?
3.65% [at 30.8 µM] (inactive)

Under Rap guanine nucleotide exchange factor 3 (Homo sapiens): activation value of `O=C(CSc1nnnn1-c1ccccc1)Nc1ccc(Cl)cn1` ?
inactive

Under Rap guanine nucleotide exchange factor 3 (Homo sapiens): activation value of O=C1CC(c2c(F)cccc2Cl)c2c(ccc3ccccc23)N1 (configuration not stated) ?
inactive

Under Rap guanine nucleotide exchange factor 3 (Homo sapiens): activation value of `Nc1ncc(Br)cc1S(=O)(=O)Nc1cc(C(F)(F)F)cc(C(F)(F)F)c1` ?
inactive

Under Rap guanine nucleotide exchange factor 3 (Homo sapiens): activation value of `Cc1nnc(SCc2nnc(-c3ccc(Cl)cc3)o2)n1-c1ccccc1` ?
inactive

Under Rap guanine nucleotide exchange factor 3 (Homo sapiens): activation value of `COc1ccc(/C=C/C(=O)c2ccccc2)c(OC)c1` ?
-1.52% [at 30.8 µM] (inactive)

Under Rap guanine nucleotide exchange factor 3 (Homo sapiens): activation value of `O=C(NN1C(=O)/C(=C/c2ccc(O)c([N+](=O)[O-])c2)SC1=S)c1ccccc1Cl` ?
inactive

Under Rap guanine nucleotide exchange factor 3 (Homo sapiens): activation value of `Cc1ccc(-c2csc3ncnc(Nc4ccc(C(=O)O)cc4)c23)cc1` ?
inactive

Under Rap guanine nucleotide exchange factor 3 (Homo sapiens): activation value of `Cc1nc(S/C(=C/c2ccc(-c3cc(Cl)ccc3C)o2)C(=O)O)n[nH]1` ?
inactive

Under Rap guanine nucleotide exchange factor 3 (Homo sapiens): activation value of `COC(=O)c1cc(C#N)c(Oc2ccccc2OC)nc1C` ?
inactive

Under Rap guanine nucleotide exchange factor 3 (Homo sapiens): activation value of `COc1cc(Cl)cc(/C=N\NC(=O)c2ccc3c(c2)OCO3)c1O` ?
inactive

Under Rap guanine nucleotide exchange factor 3 (Homo sapiens): activation value of `COc1ccc(S(=O)(=O)N2CCCCC2)cc1C(C)C` ?
inactive

Under Rap guanine nucleotide exchange factor 3 (Homo sapiens): activation value of `NC1=CC(=O)C(=O)c2cccnc21` ?
11.2% [at 30.8 µM] (inactive)

---

- Method notes: Cell Viability - LYMP2-026 (AID 989);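 note: cells exposed to compound for 24 h at 37 °C; nearly all actives have a fitted effect of over 50% in size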
- Run conditions: LYMP2-026 lymphoblastoid cell viability, qHTS; series mostly up to 92.2 µM
Inconclusive results are not listed. Activity calls are given as the source filed them. The call rests on the fitted dose curve; in most records, active means well fitted cell-killing curve with a large enough effect; inconclusive means small, poorly fitted or top-dose-only effect; inactive means flat fitted curve, though single readings scatter.
Respond only with the outcome that fits, drawn from class 1 (active), class 0 (inactive)

What outcome does the record of this test show for `COC(=O)c1ccc(C=O)cc1` ?
class 0

What outcome does the record of this test show for `O=S(=O)(O)c1ccccc1` ?
class 0

What outcome does the record of this test show for O=C(O)CC(C(=O)O)C(CC(=O)O)C(=O)O (centres undefined) ?
class 0

What outcome does the record of this test show for `Clc1cc(Cl)c(Cl)cc1Cl` ?
class 0

What outcome does the record of this test show for `O=NO` ?
class 0

What outcome does the record of this test show for CCCCC(CC)CN (centres undefined) ?
class 0

What outcome does the record of this test show for NC1=NC(S)C2N=CN=C2N1 (centres undefined) ?
class 1

What outcome does the record of this test show for `Cc1ccc([N+](=O)[O-])cc1N` ?
class 0

What outcome does the record of this test show for `C=Cc1ccccc1Cl` ?
class 0

What outcome does the record of this test show for `CN(C)C=O` ?
class 0

What outcome does the record of this test show for `O=C(/C=C/c1ccc(O)c(O)c1)O[C@@H](C(=O)O)[C@@H](OC(=O)/C=C/c1ccc(O)c(O)c1)C(=O)O` ?
class 0

What outcome does the record of this test show for `C=CCc1ccc(OC)c(OC)c1` ?
class 0

What outcome does the record of this test show for `Nc1ccc(Cl)cc1Cl` ?
class 0

What outcome does the record of this test show for `CCCCCCCCCCCC(=O)O` ?
class 0

What outcome does the record of this test show for `Clc1cc(Cl)c(Cl)c(Cl)c1Cl` ?
class 0

What outcome does the record of this test show for CCC(C)c1ccccc1O (centres undefined) ?
class 0

What outcome does the record of this test show for `CCCCCCCCCCCCCC(=O)O` ?
class 0

What outcome does the record of this test show for `CCCN(CCC)C(=O)SCC` ?
class 0

What outcome does the record of this test show for `C=CC(=C)CCC=C(C)C` ?
class 0

What outcome does the record of this test show for `OCCNCCO` ?
class 0

What outcome does the record of this test show for `C=CCOC(=O)c1ccccc1C(=O)OCC=C` ?
class 0

What outcome does the record of this test show for `CCO[Si](CCCN)(OCC)OCC` ?
class 0

What outcome does the record of this test show for `Cc1c(N=C=O)cccc1N=C=O` ?
class 0

What outcome does the record of this test show for `CC1=CC(C)(C)Nc2ccccc21` ?
class 0

What outcome does the record of this test show for `COc1cc(/C=C/c2ccccc2)oc(=O)c1` ?
class 0

What outcome does the record of this test show for CC1(C)CC(N=C=O)CC(C)(CN=C=O)C1 (centres undefined) ?
class 0

What outcome does the record of this test show for CC(C)=CCCC(C)CCO (centres undefined) ?
class 0

What outcome does the record of this test show for `CN(C)CCCCCCN(C)C` ?
class 0

What outcome does the record of this test show for `COC(=O)c1ccc(C)cc1` ?
class 0

What outcome does the record of this test show for `CCCCCCCCO` ?
class 0

What outcome does the record of this test show for `O=C1c2ccccc2C(=O)C1c1ccc2ccccc2n1` ?
class 0

What outcome does the record of this test show for `O=C1CCc2ccccc2O1` ?
class 0

What outcome does the record of this test show for `COC(=O)CCCCC(=O)OC` ?
class 0

What outcome does the record of this test show for `COCC(=O)O` ?
class 0

---

- Assay target: Rap guanine nucleotide exchange factor 3 (Homo sapiens)
- Method notes: Confirmatory qHTS for antagonist of cAMP-regulated guanine nucleotide exchange factor 3 (EPAC1) (AID 1645880); note: nearly all actives have a fitted effect of over 55% in size
- Run conditions: EPAC1 Rap1B-BODIPY-GDP exchange, fluorescence
- From the text: Assay Provider (PI): Xiaodong Cheng Ph.D. The University of Texas Medical Branch, […], TX MLPCN Grant: NS066510 In multi-cellular eukaryotic organisms, the effects of cAMP are transduced by two ubiquitously-expressed intracellular cAMP receptors, the classic protein kinase A/cAMP-dependent protein kinase (PKA/cAPK) and the more recently discovered exchange protein directly activated by cAMP/cAMP-regulated guanine nucleotide exchange factor (EPAC/cAMP-GEF). […]
Records with an inconclusive call do not appear. The source made the active and inactive calls. Calls follow the shape of the dose curve; as a rule, active = well fitted inhibition curve with a large enough effect; inconclusive = small, poorly fitted or top-dose-only effect; inactive = no such curve, though single readings can be large or run the other way.
Respond only with the outcome that fits, drawn from active, inactive

What outcome does the record of this test show for `Cc1nnc(SCc2nnc(-c3ccc(Cl)cc3)o2)n1-c1ccccc1` ?
inactive

What outcome does the record of this test show for `COc1cc2nc(N3CCNCC3)nc(N)c2cc1OC` ?
inactive

What outcome does the record of this test show for `O=C1c2cccc3cccc(c23)N1Cc1cccc(F)c1` ?
inactive

What outcome does the record of this test show for `Cc1cccc(C(=O)Oc2ccc(/C=N/NC(=O)c3cc(O)cc(O)c3)cc2)c1` ?
active

What outcome does the record of this test show for `O=C1NC(=S)S/C1=C\c1ccc(SCc2ccccc2)o1` ?
active

What outcome does the record of this test show for `COC(=O)c1c(SC)nc2ccccc2c1OCc1ccc(C)cc1C` ?
inactive

What outcome does the record of this test show for `CCCCCn1c(CCNC(=O)c2cccc(C)c2)nc2ccccc21` ?
inactive

What outcome does the record of this test show for `Cc1ccc[n+](-c2nc([O-])sc2C=O)c1` ?
inactive

What outcome does the record of this test show for CCCC(=O)N=C1SC2CS(=O)(=O)CC2N1c1ccc(CC)cc1 (stereo not drawn) ?
inactive

What outcome does the record of this test show for `CCN1C(=O)c2cccc3c(N)ccc(c23)C1=O` ?
inactive

What outcome does the record of this test show for `COC(=O)c1cn(C(=O)c2ccc(C)cc2C)c2ccccc12` ?
inactive

What outcome does the record of this test show for `O=C(O)CN1C(=O)/C(=C\c2cc(Br)ccc2OCc2ccc(Cl)cc2)SC1=S` ?
active

What outcome does the record of this test show for CCOC(=O)C1(c2ccccc2)SC(C(=O)OCC)(c2ccccc2)S1 (stereo not drawn) ?
inactive

What outcome does the record of this test show for `Cc1c2cn[nH]c(=O)c2c(C)n1-c1ccccc1` ?
inactive

What outcome does the record of this test show for `COC(=O)c1cc2sc(C)cc2n1Cc1ccc(F)cc1Cl` ?
inactive

What outcome does the record of this test show for CCOC(=O)C1CCCCN1Cc1cccc(Oc2ccccc2)c1 (stereo not drawn) ?
inactive

What outcome does the record of this test show for O=C1OC(c2ccccc2)Sc2ccccc21 (stereo not drawn) ?
inactive

What outcome does the record of this test show for `CCCc1cc(=O)oc2cc(C)cc(OCC(=O)N[C@@H](CSCc3ccccc3)C(=O)O)c12` ?
inactive

What outcome does the record of this test show for `Cc1cccc(C)c1Nc1nn2c(=O)c3cc4c(cc3nc2s1)OCO4` ?
inactive

What outcome does the record of this test show for N=C1SC(c2ccccc2)C(=O)N1c1ncc(Cc2ccccc2Cl)s1 (stereo not drawn) ?
inactive

What outcome does the record of this test show for `Cc1cc(S(=O)(=O)N2CCN(CC(=O)N(C)Cc3ccccc3)CC2)ccc1Br` ?
inactive

What outcome does the record of this test show for `COc1ccc(/C=N/N=C2/C(=O)Nc3ccccc32)cc1O` ?
inactive

What outcome does the record of this test show for CSc1ccc(C2C(C(=O)c3ccco3)=C(O)C(=O)N2c2nnc(SC)s2)cc1 (stereo not drawn) ?
active
